B1: Histone H1t, residues 44 to 112; numbered along this chain, P22492 (parent)
chain: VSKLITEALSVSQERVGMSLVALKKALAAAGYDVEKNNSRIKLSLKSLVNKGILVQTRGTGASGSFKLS

variants of: B1; assay: abundance fitness (aPCA) (normalised: wild type 0, dead -1); higher = more abundant; growth selection in yeast, the domain comes from the species named; conditions: Homo sapiens
OBSERVED_PROPERTY: abundance fitness

Field: example entries. Status: answers known.
>  <MUTATION_STRING>
L23Y

>  <abundance fitness>
-0.933

$$$$
>  <MUTATION_STRING>
K67H

>  <abundance fitness>
-0.148

$$$$
>  <MUTATION_STRING>
N38A

>  <abundance fitness>
0.106

$$$$
>  <MUTATION_STRING>
F66R

>  <abundance fitness>
-0.084

$$$$

The following variants each have a reported value; give each one's abundance fitness.
1. S39D
2. K36V

1: -0.013; 2: -0.46

The following variants each have a reported value; give each one's abundance fitness.
1. V49F
2. R58I
3. V34L
4. L48Y
5. I53E

1. -0.056
2. -0.09
3. -0.214
4. -0.624
5. -0.002
